// values below are reported % photobleaching of absorbance
# test method notes: Photo-stability test (photobleaching under 250 W blue light)
# Type: physicochemical
# condition description: DMSO, 250 W blue light (380–500 nm), after 30 min irradiation

- compound: "CN(C)c1ccc(/C=C/C(=O)c2ccc(N)cc2)cc1 [3f]"
  % photobleaching of absorbance: "48%"
- compound: "CN(C)c1ccc(/C=C/C(=O)c2cccs2)cc1 [3b]"
  % photobleaching of absorbance: "26%"
- compound: "Cc1ccc(C(=O)/C=C/c2ccc(N(C)C)cc2)cc1 [3e]"
  % photobleaching of absorbance: "46%"
- compound: "CN(C)c1ccc(/C=C/C(=O)c2ccc(N(C)C)cc2)cc1 [3d]"
  % photobleaching of absorbance: "51%"
- compound: "CN(C)c1ccc(/C=C/C(=O)c2ccc(O)cc2)cc1 [3c]"
  % photobleaching of absorbance: "37%"
- compound: "COc1ccc(C(=O)/C=C/c2ccc(N(C)C)cc2)cc1 [3a]"
  % photobleaching of absorbance: "50%"

###

# test method notes: Photophysical properties (UV–Vis absorption and fluorescence spectra)
# Format: physicochemical
# condition description: MeOH
# Lookup of reported ε molar absorptivity keyed by entry
readout label: ε molar absorptivity

- molecule smiles: "Cc1ccc(C(=O)/C=C/c2ccc(N(C)C)cc2)cc1"
  experimental value: "32000 M⁻¹ cm⁻¹"
- molecule smiles: "CN(C)c1ccc(/C=C/C(=O)c2ccc(O)cc2)cc1"
  experimental value: "10000 M⁻¹ cm⁻¹"
- molecule smiles: "COc1ccc(C(=O)/C=C/c2ccc(N(C)C)cc2)cc1"
  experimental value: "30000 M⁻¹ cm⁻¹"
- molecule smiles: "CN(C)c1ccc(/C=C/C(=O)c2cccs2)cc1"
  experimental value: "29000 M⁻¹ cm⁻¹"
- molecule smiles: "CN(C)c1ccc(/C=C/C(=O)c2ccc(N(C)C)cc2)cc1"
  experimental value: "37000 M⁻¹ cm⁻¹"
- molecule smiles: "CN(C)c1ccc(/C=C/C(=O)c2ccc(N)cc2)cc1"
  experimental value: "31000 M⁻¹ cm⁻¹"

###

# test method notes: Photophysical properties (UV–Vis absorption and fluorescence spectra)
# Type: physicochemical
# condition description: DMSO, 2 µM
Here the recorded ∆λ stokes shifts (λem − λabs) is given for each entry.
readout label: ∆λ stokes shifts (λem − λabs) (nm)

- compound: "CN(C)c1ccc(/C=C/C(=O)c2ccc(N)cc2)cc1 [3f]"
  readout label: "∆λ stokes shifts (λem − λabs)"
  unit spec: "nm"
  experimental value: 100
- compound: "Cc1ccc(C(=O)/C=C/c2ccc(N(C)C)cc2)cc1 [3e]"
  readout label: "∆λ stokes shifts (λem − λabs)"
  unit spec: "nm"
  experimental value: 119
- compound: "CN(C)c1ccc(/C=C/C(=O)c2ccc(N(C)C)cc2)cc1 [3d]"
  readout label: "∆λ stokes shifts (λem − λabs)"
  unit spec: "nm"
  experimental value: 94
- compound: "CN(C)c1ccc(/C=C/C(=O)c2ccc(O)cc2)cc1 [3c]"
  readout label: "∆λ stokes shifts (λem − λabs)"
  unit spec: "nm"
  experimental value: 107
- compound: "CN(C)c1ccc(/C=C/C(=O)c2cccs2)cc1 [3b]"
  readout label: "∆λ stokes shifts (λem − λabs)"
  unit spec: "nm"
  experimental value: 129
- compound: "COc1ccc(C(=O)/C=C/c2ccc(N(C)C)cc2)cc1 [3a]"
  readout label: "∆λ stokes shifts (λem − λabs)"
  unit spec: "nm"
  experimental value: 115
